Entry source: paper PMC11700292

Target: FGFR1b extracellular domain-Fc (human) (UniProt P11362)
Sequence (P11362 whole entry, the tested form may be a part): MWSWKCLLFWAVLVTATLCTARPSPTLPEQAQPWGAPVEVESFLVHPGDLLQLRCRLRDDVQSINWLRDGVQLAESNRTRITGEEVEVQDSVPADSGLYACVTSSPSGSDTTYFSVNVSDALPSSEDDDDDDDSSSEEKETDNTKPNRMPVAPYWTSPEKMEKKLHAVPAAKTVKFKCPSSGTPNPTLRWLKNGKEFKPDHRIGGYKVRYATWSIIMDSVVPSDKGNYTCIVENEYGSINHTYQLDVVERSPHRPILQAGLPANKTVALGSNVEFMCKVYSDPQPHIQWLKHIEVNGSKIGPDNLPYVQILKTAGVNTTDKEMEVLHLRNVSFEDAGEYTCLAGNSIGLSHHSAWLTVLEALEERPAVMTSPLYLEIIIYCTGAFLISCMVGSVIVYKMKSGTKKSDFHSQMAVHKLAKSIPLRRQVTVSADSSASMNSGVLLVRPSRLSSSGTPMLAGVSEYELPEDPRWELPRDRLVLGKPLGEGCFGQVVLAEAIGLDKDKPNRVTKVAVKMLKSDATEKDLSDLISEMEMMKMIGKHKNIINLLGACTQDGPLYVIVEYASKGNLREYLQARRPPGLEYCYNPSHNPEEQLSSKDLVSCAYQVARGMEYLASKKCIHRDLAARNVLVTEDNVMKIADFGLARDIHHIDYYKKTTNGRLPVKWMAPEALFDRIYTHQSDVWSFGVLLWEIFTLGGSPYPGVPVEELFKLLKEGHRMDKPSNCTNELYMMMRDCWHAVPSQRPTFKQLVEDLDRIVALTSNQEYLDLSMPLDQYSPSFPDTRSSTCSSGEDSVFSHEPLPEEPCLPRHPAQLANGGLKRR
Assay: BLI
Settings: PBS, no Mg2+; BLI (Octet K2, protein A sensor, FGFR-Fc 5 ug/mL), VZ23 31.25-500 nM in PBS (8.1 mM Na2HPO4, 1.5 mM NaH2PO4, 137 mM NaCl, 2.7 mM KCl as given for NMR) with or …
MEASURE: pKd
Here pKd is given on a logarithmic scale as minus log10 of the concentration in mol/L.

Report pKd from FGFR1b extracellular domain-Fc (human) (UniProt P11362) testing of GGGATACAGGGCTTTGTCTATGGTGTGGATGGCGGATACC [VZ23] 7.26

* * *

Biological target: FGFR1b extracellular domain-Fc (human) (UniProt P11362)
Test: BLI
Conditions: 2 mM Mg2+; BLI (Octet K2, protein A sensor, FGFR-Fc 5 ug/mL), VZ23 31.25-500 nM in PBS (8.1 mM Na2HPO4, 1.5 mM NaH2PO4, 137 mM NaCl, 2.7 mM KCl as given for NMR) with or …
MEASURE: Kd (nM)
Give just the numeric value; nM need not be written.

Recall the reported Kd of GGGATACAGGGCTTTGTCTATGGTGTGGATGGCGGATACC [VZ23] on FGFR1b extracellular domain-Fc (human) (UniProt P11362) and write it down. 29.8
